# systemName: MRGPRX4 (Homo sapiens, UniProt Q96LA9)
# Sequence (Q96LA9 whole entry): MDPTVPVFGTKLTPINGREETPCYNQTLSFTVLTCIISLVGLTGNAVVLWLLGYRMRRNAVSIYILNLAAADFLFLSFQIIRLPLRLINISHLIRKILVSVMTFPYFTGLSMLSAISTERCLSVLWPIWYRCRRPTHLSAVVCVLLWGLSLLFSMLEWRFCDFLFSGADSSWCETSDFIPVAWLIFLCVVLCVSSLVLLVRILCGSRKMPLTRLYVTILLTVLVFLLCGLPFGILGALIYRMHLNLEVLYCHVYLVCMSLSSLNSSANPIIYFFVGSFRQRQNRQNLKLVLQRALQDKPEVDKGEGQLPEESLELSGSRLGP
# testSummary: MRGPRX4 activation, Fluo-8 Ca2+ FLIPR assay in HEK293T cells stably expressing MRGPRX4
# Assay type: cell-based
# particulars: E3-9, Conc. (Log[M]) −6.9
# Experimental: In some embodiments, cells were cultured in poly-D-Lys coated blacked walled, clear-bottom 96-well microplates. […] The concentration of solution should be determined according to the protocol settings and experimental needs (e.g., Log[M]=−4, −5, −6, −7, −8, and −9). […] A fluorescent signal baseline was measured using FLIPR®Tetra for 30 s. […] The fluorescent signal would be measured for another 150 s. Activity of each compound was calculated by the fluorescence change (dF/F0). […]
Think of 0.02 as a floor: if MRGPRX4 activation, Average stands on it or above, it is YES; beneath it, NO.

1) CC[C@H]1[C@@H](O)[C@H]2[C@@H]3CC[C@](C)([C@H](C)CCNC(=O)NS(=O)(=O)C[C@]45CCC(CC4=O)C5(C)C)[C@H]3CC[C@@H]2[C@@]2(C)CC[C@H](F)C[C@@H]12: YES
2) CC[C@H]1[C@@H](O)[C@@H]2[C@H](CC[C@]3(C)[C@@H]([C@H](C)CCNC(=S)NS(=O)(=O)c4ccc(C(C)(C)CF)cc4)CC[C@@H]23)[C@@]2(C)CCC(F)(F)C[C@@H]12: NO
3) CC[C@H]1[C@@H](O)[C@@H]2[C@H](CC[C@]3(C)[C@@H]([C@H](C)CCNC(=O)NS(=O)(=O)c4ccc(C(C)(C)CF)cc4)CC[C@@H]23)[C@@]2(C)CCC(F)(F)C[C@@H]12: NO

**Query** Please tell me: is the compound CC[C@H]1[C@@H](O)[C@@H]2[C@H](CC[C@]3(C)[C@@H]([C@H](C)CCNC(=O)NS(=O)(=O)c4ccc(N5CCCCC5)nc4)CC[C@@H]23)[C@@]2(C)CCCC[C@@H]12 at or over 0.02 in terms of MRGPRX4 activation, Average?
**Result** YES

**Query** Please tell me: is the compound CC[C@H]1[C@@H](O)[C@@H]2[C@H](CC[C@]3(C)[C@@H]([C@H](C)CCNC(=O)NS(=O)(=O)c4cccs4)CC[C@@H]23)[C@@]2(C)CCC(F)(F)C[C@@H]12 at or over 0.02 in terms of MRGPRX4 activation, Average?
**Result** NO

----------
What MRGPRX4 activation, Average was measured for each of the following?
# systemName: MRGPRX4 (Homo sapiens, UniProt Q96LA9)
# testSummary: MRGPRX4 activation, Fluo-8 Ca2+ FLIPR assay in HEK293T cells stably expressing MRGPRX4
# Assay type: cell-based
# Set-up: key: fluorescence change dF/F0
# particulars: E3-9, Conc. (Log[M]) −8.3
Give bare numbers.

Here is how some compounds turned out for MRGPRX4 activation, Average.
1) CC[C@H]1[C@@H](O)[C@@H]2[C@H](CC[C@]3(C)[C@@H]([C@H](C)CCNS(=O)(=O)C4CC4)CC[C@@H]23)[C@@]2(C)CCCC[C@@H]12: 0.018
2) CC[C@H]1[C@@H](O)[C@@H]2[C@H](CC[C@]3(C)[C@@H]([C@H](C)CCNC(=O)NS(=O)(=O)c4cc(F)cc(F)c4)CC[C@@H]23)[C@@]2(C)CCC(F)(F)C[C@@H]12: 0.018
3) CC[C@H]1[C@@H](O)[C@@H]2[C@H](CC[C@]3(C)[C@@H]([C@H](C)CCNC(=O)NS(=O)(=O)c4ccc(N5CCCCC5)nc4)CC[C@@H]23)[C@@]2(C)CCCC[C@@H]12: 0.028
4) CC[C@H]1[C@@H](O)[C@@H]2[C@H](CC[C@]3(C)[C@@H]([C@H](C)CCNS(=O)(=O)C[C@]45CC[C@H](CC4=O)C5(C)C)CC[C@@H]23)[C@@]2(C)CCCC[C@@H]12: 0.013
5) CC[C@H]1[C@@H](O)[C@@H]2[C@H](CC[C@]3(C)[C@@H]([C@H](C)CCNC(=S)NS(=O)(=O)c4cccs4)CC[C@@H]23)[C@@]2(C)CCC(F)(F)C[C@@H]12: 0.051

Report MRGPRX4 activation, Average for each item below.
1. CCOC(=O)C(=O)NCC[C@@H](C)[C@H]1CC[C@H]2[C@@H]3[C@H](O)[C@H](CC)[C@@H]4CCCC[C@]4(C)[C@H]3CC[C@]12C
2. CC[C@H]1[C@@H](O)[C@@H]2[C@H](CC[C@]3(C)[C@@H]([C@H](C)CCN=C=S)CC[C@@H]23)[C@@]2(C)CCC(F)(F)C[C@@H]12
3. CC[C@H]1[C@@H](O)[C@@H]2[C@H](CC[C@]3(C)[C@@H]([C@H](C)CCNS(=O)(=O)CC(C)C)CC[C@@H]23)[C@@]2(C)CCCC[C@@H]12
4. CC[C@H]1[C@@H](O)[C@@H]2[C@H](CC[C@]3(C)[C@@H]([C@H](C)CCNC(=O)NS(=O)(=O)c4ccc(Br)cc4OC(F)(F)F)CC[C@@H]23)[C@@]2(C)CC[C@H](F)C[C@@H]12
5. CC[C@H]1[C@@H](O)[C@@H]2[C@H](CC[C@]3(C)[C@@H]([C@H](C)CCNC(=O)NS(=O)(=O)c4cc(F)cc(F)c4)CC[C@@H]23)[C@@]2(C)CC[C@H](F)C[C@@H]12
6. [2H]C1([2H])CC[C@@]2(C)[C@@H](C1)[C@@H](CC)[C@@H](O)[C@@H]1[C@@H]2CC[C@]2(C)[C@@H]([C@H](C)CCNC(=S)NS(=O)(=O)c3cccs3)CC[C@@H]12

**Result**
1: 0.011; 2: 0.025; 3: 0.018; 4: 0.016; 5: 0.016; 6: 0.015

----------
# systemName: UniProt:Q96LA9
# testSummary: MRGPRX4 activation, Fluo-8 Ca2+ FLIPR assay in HEK293T cells stably expressing MRGPRX4
# Type: cell-based
# Design: key: fluorescence change dF/F0
# particulars: E3-6-2, 6th of 6 concentration columns (head not in rows shown)
quantityName: MRGPRX4 activation, Average
One number for each entry.

Here is how some compounds turned out for MRGPRX4 activation, Average.
1) CCCCS(=O)(=O)NC(=O)NCC[C@@H](C)[C@H]1CC[C@H]2[C@@H]3[C@H](O)[C@H](CC)[C@@H]4CCCC[C@]4(C)[C@H]3CC[C@]12C [5-14]: 0.017
2) CC[C@H]1[C@@H](O)[C@@H]2[C@H](CC[C@]3(C)[C@@H]([C@H](C)CCNC(=O)NS(=O)(=O)Cc4ccccc4)CC[C@@H]23)[C@@]2(C)CCCC[C@@H]12 [5-13]: 0.027

Report MRGPRX4 activation, Average for each item below.
1. CC[C@H]1[C@@H](O)[C@@H]2[C@H](CC[C@]3(C)[C@@H]([C@H](C)CCNC(=O)NS(=O)(=O)N4CC5CC5C4)CC[C@@H]23)[C@@]2(C)CCCC[C@@H]12 (stereo partly shown) [5-12]
2. CC[C@H]1[C@@H](O)[C@@H]2[C@H](CC[C@]3(C)[C@@H]([C@H](C)CCNC(=O)NS(=O)(=O)N(C)C)CC[C@@H]23)[C@@]2(C)CCCC[C@@H]12 [5-15]

**Result**
1. 0.013
2. 0.010

----------
# systemName: MRGPRX4 (Homo sapiens, UniProt Q96LA9)
# testSummary: MRGPRX4 activation, Fluo-8 Ca2+ FLIPR assay in HEK293T cells stably expressing MRGPRX4
# Format: cell-based
# particulars: Conc. (Log[M]) −5.5
quantityName: MRGPRX4 activation, fluorescence change (dF/F0), Average

1. CC[C@H]1[C@@H](O)[C@@H]2[C@H](CC[C@]3(C)[C@@H]([C@H](C)CCNC(=O)NS(=O)(=O)c4ccc(C(C)(C)CO)cc4)CC[C@@H]23)[C@@]2(C)CCCC[C@@H]12: 0.027
2. C[C@]12CC[C@@H](O)C[C@H]1CC[C@@H]1[C@@H]2C[C@H](O)[C@]2(C)[C@@H](CCCCCC(=O)O)CC[C@@H]12: 0.026
3. C[C@H](CCC(=O)O)[C@H]1CC[C@H]2[C@@H]3CC[C@@H]4C[C@@H](O)CC[C@]4(C)[C@H]3C[C@@H](O)[C@]12C: 0.009

Report MRGPRX4 activation, fluorescence change (dF/F0), Average for each item below.
1. C[C@H](CCC(=O)O)[C@H]1CC[C@H]2[C@@H]3[C@H](O)C[C@@H]4C[C@H](O)CC[C@]4(C)[C@H]3CC[C@]12C [CDCA, chenodeoxycholic acid, reference compound]
2. C[C@H](CC/C=C/C(=O)O)[C@H]1CC[C@H]2[C@@H]3CC[C@@H]4C[C@H](O)CC[C@]4(C)[C@H]3CC[C@]12C
3. CC[C@H]1[C@@H](O)[C@@H]2[C@H](CC[C@]3(C)[C@@H]([C@H](C)CCC(=O)NS(=O)(=O)CC)CC[C@@H]23)[C@@]2(C)CCCC[C@@H]12
4. CC[C@H]1[C@@H](OC(=O)c2cccc(I)c2)[C@@H]2[C@H](CC[C@]3(C)C([C@H](C)CCC(=O)OC)=CC[C@@H]23)[C@@]2(C)CCCC[C@@H]12
5. CC[C@H]1[C@@H](O)[C@@H]2[C@H](CC[C@]3(C)[C@@H]([C@H](C)CCNC(=O)NS(=O)(=O)c4ccc(C(C)(C)C(=O)O)cc4)CC[C@@H]23)[C@@]2(C)CCCC[C@@H]12

**Result**
1: −0.017; 2: −0.037; 3: 0.015; 4: −0.004; 5: 0.017

Report MRGPRX4 activation, fluorescence change (dF/F0), Average for each item below.
1. CC[C@H]1[C@@H](OC(=O)c2cccc(I)c2)[C@@H]2[C@H](CC[C@]3(C)[C@@H]([C@H](C)CCC(=O)OC)CC[C@@H]23)[C@@]2(C)CCCC[C@@H]12
2. CC[C@H]1[C@@H](O)[C@@H]2[C@H](CC[C@]3(C)[C@@H]([C@H](C)CCNC(=O)NS(=O)(=O)N4CCCC4)CC[C@@H]23)[C@@]2(C)CCCC[C@@H]12
3. CC[C@H]1[C@@H](O)[C@@H]2[C@H](CC[C@]3(C)[C@@H]([C@H](C)CCC(=O)O)CC[C@@H]23)[C@@]2(C)CCCC[C@@H]12

**Result**
1. −0.034
2. 0.013
3. −0.032
